- target.system: OXA-48 (UniProt Q6XEC0)
- assay.method.text: β-lactamase enzyme inhibition assay, Class D oxacillinase
- condition.set: read-out: OXA-48
readout.kind: IC50

Enter recorded IC50 with OXA-48 (UniProt Q6XEC0) for O=C(Cn1cc(CCO)nn1)N[C@H]1Cc2cccc(C(=O)O)c2OB1O [Example 5] here.
100 to 1000 nM

# return IC50 for O=C(Cn1nnc(CO)c1CO)N[C@H]1Cc2cccc(C(=O)O)c2OB1O [Example 8] , test system: OXA-48 (UniProt Q6XEC0)
100 to 1000 nM

Send back OXA-48 (UniProt Q6XEC0) IC50 of N#Cc1ncn(CC(=O)N[C@H]2Cc3cccc(C(=O)O)c3OB2O)n1 [Example 25] only.
100 to 1000 nM

Give IC50; test system OXA-48 (UniProt Q6XEC0); compound NCCn1nnc(CC(=O)N[C@H]2Cc3cccc(C(=O)O)c3OB2O)n1 [Example 42]
100 to 1000 nM

Next compound, IC50 to be filled in.
# return IC50 for O=C(Cn1nnc(C(=O)O)c1C(=O)O)N[C@H]1Cc2cccc(C(=O)O)c2OB1O [Example 16] , test system: OXA-48 (UniProt Q6XEC0)
< 100 nM

Reference for the values: patent US11046716B2
